// data source = the supplement of paper PMC11246515

assay: total protein half-life in vivo (active degradation + dilution); higher = more stable protein; conditions: E. coli NCM3722 delta-smpB; growth: N-lim chemostat; doubling time 6 h
total protein half-life in vivo of 4 h or higher: fulfilled. Under 4 h: not fulfilled.

Take a look at these entries with their results.
MKSVLKVSLAALTLAFAVSSHAADKKLVVATDTAFVPFEFKQGDKYVGFDVDLWAAIAKELKLDYELKPMDFSGIIPALQTKNVDLALAGITITDERKKAIDFSDGYYKSGLLVMVKANNNDVKSVKDLDGKVVAVKSGTGSVDYAKANIKTKDLRQFPNIDNAYMELGTNRADAVLHDTPNILYFIKTAGNGQFKAVGDSLEAQQYGIAFPKGSDELRDKVNGALKTLRENGTYNEIYKKWFGTEPK [P0AEQ3]: fulfilled
MKRQKRDRLERAHQRGYQAGIAGRSKEMCPYQTLNQRSQWLGGWREAMADRVVMA [P0AFW2]: not fulfilled
MRYHGDMLLTTPVISTLKQNYPDAKIDMLLYQDTIPILSENPEINALYGISNKGAGTFDKIKNVLSLIKTLRANNYDLVINLTDQWMVALLVRCLPARMKISQLYGHRQHGIWKKSFTHLAPIHGTHIVERNLSVLEPLGITDFYTDTTMSYAEDCWKKMRRELDALGVKDHYVVIQPTARQIFKCWDNDKFSKVIDALQQRGYQVVLTCGPSADDLACVDEIARGCETKPITGLAGKTRFPELGALIDHAVLFIGVDSAPGHIAAAVKTPVISLFGATDHVFWRPWTENIIQFWAGNYQKMPTRHELDRNKKYLSVIPAEDVIAATEKLLPEDAPSADRNAQL: fulfilled
MRTVLNILNFVLGGFATTLGWLLATLVSIVLIFTLPLTRSCWEITKLSLVPYGNEAIHVDELNPAGKNVLLNTGGTVLNIFWLIFFGWWLCLMHIATGIAQCISIIGIPVGIANFKIAAIALWPVGRRVVSVETAQAAREANARRRFE [P0AB12]: fulfilled
MLKTIRKHGITLALFAAGSTGLTAAINQMTKTTIAEQASLQQKALFDQVLPAERYNNALAQSCYLVTAPELGKGEHRVYIAKQDDKPVAAVLEATAPDGYSGAIQLLVGADFNGTVLGTRVTEHHETPGLGDKIELRLSDWITHFAGKKISGADDAHWAVKKDGGDFDQFTGATITPRAVVNAVKRAGLYAQTLPAQLSQLPACGE: fulfilled

Query :: Record MRILLSNDDGVHAPGIQTLAKALREFADVQVVAPDRNRSGASNSLTLESSLRTFTFENGDIAVQMGTPTDCVYLGVNALMRPRPDIVVSGINAGPNLGDDVIYSGTVAAAMEGRHLGFPALAVSLDGHKHYDTAAAVTCSILRALCKEPLRTGRILNINVPDLPLDQIKGIRVTRCGTRHPADQVIPQQDPRGNTLYWIGPPGGKCDAGPGTDFAAVDEGYVSITPLHVDLTAHSAQDVVSDWLNSVGVGTQW [P0A840] ; criterion: total protein half-life in vivo no lower than 4 h. Met?
Result :: not fulfilled

Query :: Now try MKMNKSLIVLCLSAGLLASAPGISLADVNYVPQNTSDAPAIPSAALQQLTWTPVDQSKTQTTQLATGGQQLNVPGISGPVAAYSVPANIGELTLTLTSEVNKQTSVFAPNVLILDQNMTPSAFFPSSYFTYQEPGVMSADRLEGVMRLTPALGQQKLYVLVFTTEKDLQQTTQLLDPAKAYAKGVGNSIPDIPDPVARHTTDGLLKLKVKTNSSSSVLVGPLFGSSAPAPVTVGNTAAPAVAAPAPAPVKKSEPMLNDTESYFNTAIKNAVAKGDVDKALKLLDEAERLGSTSARSTFISSVKGKG .
Result :: not fulfilled
